- Target or system: LPAR1 (Homo sapiens, UniProt Q92633)
- Construct: host or cells: U2OS
- Sequence (Q92633 whole entry): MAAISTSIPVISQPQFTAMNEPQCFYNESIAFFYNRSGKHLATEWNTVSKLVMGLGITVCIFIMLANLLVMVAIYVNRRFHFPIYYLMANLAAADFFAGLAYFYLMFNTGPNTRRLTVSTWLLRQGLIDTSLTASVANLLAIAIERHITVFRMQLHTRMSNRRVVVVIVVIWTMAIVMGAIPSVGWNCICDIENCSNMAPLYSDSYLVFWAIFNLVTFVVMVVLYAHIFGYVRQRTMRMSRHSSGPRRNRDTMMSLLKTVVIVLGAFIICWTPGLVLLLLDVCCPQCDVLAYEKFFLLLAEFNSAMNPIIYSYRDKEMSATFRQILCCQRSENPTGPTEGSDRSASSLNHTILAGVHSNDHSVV
- Assay explanation: IP-One HTRF Assay
- Format: cell-based
- Condition info: U2OS cells stably expressing LPAR1; LPA stimulation; IP-One Tb HTRF kit
pIC50: −log10 of the molar value.
pIC50 of 6 or higher: 1. Under 6: -1.

{"Molecule": "COc1cc(C(=O)N(CCCc2c(F)cccc2F)CCOCC(=O)O)cc(OC)c1C [Example 128]", "Assigned label": -1}
{"Molecule": "COc1cc(C(=O)N(CCCc2ccccc2)CC(=O)NC2(C(=O)O)CC2)cc(OC)c1C [Example 3]", "Assigned label": -1}
{"Molecule": "COc1cc(C(=O)N(CCCc2ccccc2)CCOCC2(C(=O)O)CC2)cc(OC)c1C [Example 59]", "Assigned label": 1}
{"Molecule": "COc1cc(C(=O)N(CCCCC(=O)O)CCCc2cccc(F)c2)cc(OC)c1C [Example 33]", "Assigned label": 1}
{"Molecule": "COc1cc(C(=O)N(CCCCC(=O)O)CCCc2ccccc2)cc(OC)c1OC [Example 10]", "Assigned label": 1}
{"Molecule": "COc1cc(C(=O)N(CCCc2cccc(F)c2)CCSCC(=O)O)cc(OC)c1C [Example 117]", "Assigned label": 1}
{"Molecule": "COc1cc(C(=O)N(CCCc2cccc(Cl)c2)CCSCC(=O)O)cc(OC)c1C [Example 122]", "Assigned label": 1}
{"Molecule": "COc1cc(C(=O)N(CCCc2ccccc2)CC(=O)NC2(C(=O)O)CCCCC2)cc(OC)c1C [Example 2]", "Assigned label": -1}
{"Molecule": "COc1cc(C(=O)N(CCCCC(=O)O)CCCc2ccc(C)o2)cc(OC)c1C [Example 138]", "Assigned label": 1}
{"Molecule": "COc1cc(C(=O)N(CCCc2ccccc2F)CCSCC(=O)O)cc(OC)c1C [Example 116]", "Assigned label": 1}
{"Molecule": "CCOP(=O)(O)CCCCN(CCCc1ccccc1)C(=O)c1cc(OC)cc(OC)c1 [Example 76]", "Assigned label": -1}
{"Molecule": "COc1ccc(C2(C(=O)N(CCCc3ccccc3)CCSCC(=O)O)CC2)cc1 [Example 115]", "Assigned label": -1}
{"Molecule": "COc1cc(C(=O)N(CCCc2ccccc2)CCC[C@@H](C)C(=O)O)cc(OC)c1C (single isomer, unassigned) [Example 77]", "Assigned label": 1}
{"Molecule": "COc1cc(C(=O)N(CCCc2ccccc2)CCOCP(=O)(O)O)cc(OC)c1C [Example 50]", "Assigned label": 1}

----------
- Target or system: LPAR1 (Homo sapiens)
- Construct: host or cells: U2OS
- Assay explanation: IP-One HTRF Assay
- Type: cell-based
- Condition info: U2OS cells stably expressing LPAR1; LPA stimulation; IP-One Tb HTRF kit
Measured metric: IC50 (nM)

{"Compound": "COc1ccc(C2(C(=O)N(CCCCC(=O)O)CCCc3ccccc3)CC2)cc1 [Example 8]", "Experimental value": 2250}
{"Compound": "COc1cc(C(=O)N(CCCc2ccccc2)CCCC(C)C(=O)O)cc(OC)c1C (stereo not drawn) [Example 54]", "Experimental value": 22}
{"Compound": "COc1cc(OC)cc(C(=O)N(CCCc2ccccc2)CCCC(C)C(=O)O)c1 (stereo not drawn) [Example 98]", "Experimental value": 836}
